system: Staphylococcus aureus ATCC 6538; assay: DGHM suspension test, microbicidal activity; type: cell-based; conditions: CU 400 mg/l; contact time 30 mins.
test-readout: logarithmic reduction factor

smiles | result
CCCCCCCCCC(=O)OCC[N+](C)(CCO)CCOC(=O)CCCCCCCCC.COS(=O)(=O)[O-] | >5.75
CCCCCCCC(=O)OCC[N+](C)(CCOC(=O)CCCCCCC)CCOC(=O)CCCCCCC.COS(=O)(=O)[O-] | >5.50
CCCCCCCC(=O)OCC[N+](C)(CCO)CCOC(=O)CCCCCCC.COS(=O)(=O)[O-] | >5.42
CCCCCCCCCC(=O)OCC[N+](C)(C)CCOC(=O)CCCCCCCCC.COS(=O)(=O)[O-] | >5.72
CCCCCCCC(=O)OCC[N+](C)(C)CCOC(=O)CCCCCCC.COS(=O)(=O)[O-] | 1.95
CCCCCCCCC(=O)OCC[N+](C)(C)CCOC(=O)CCCCCCCC.COS(=O)(=O)[O-] | >5.19
CCCCCCCCCCCC(=O)OCC[N+](C)(CCO)CCOC(=O)CCCCCCCCCCC.COS(=O)(=O)[O-] | >5.75

---

Catalogue of logarithmic reduction factor readings, one per entry.
test system: Staphylococcus aureus ATCC 6538; test: DGHM suspension test, microbicidal activity; format: cell-based; details: CU 100 mg/l; contact time 60 mins.

smiles | logarithmic reduction factor
CCCCCCCCCC(=O)OCC[N+](C)(C)CCOC(=O)CCCCCCCCC.COS(=O)(=O)[O-] | >5.69
CCCCCCCC(=O)OCC[N+](C)(C)CCOC(=O)CCCCCCC.COS(=O)(=O)[O-] | <1.32
CCCCCCCC(=O)OCC[N+](C)(CCO)CCOC(=O)CCCCCCC.COS(=O)(=O)[O-] | >5.69
CCCCCCCCCCCC(=O)OCC[N+](C)(CCO)CCOC(=O)CCCCCCCCCCC.COS(=O)(=O)[O-] | 5.21
CCCCCCCCCC(=O)OCC[N+](C)(CCOC(=O)CCCCCCCCC)CCOC(=O)CCCCCCCCC.COS(=O)(=O)[O-] | 2.09
CCCCCCCCC(=O)OCC[N+](C)(C)CCOC(=O)CCCCCCCC.COS(=O)(=O)[O-] | >5.55
CCCCCCCC(=O)OCC[N+](C)(CCOC(=O)CCCCCCC)CCOC(=O)CCCCCCC.COS(=O)(=O)[O-] | >5.41
CCCCCCCCCC(=O)OCC[N+](C)(CCO)CCOC(=O)CCCCCCCCC.COS(=O)(=O)[O-] | >5.86
CCCCCCCCCCCC(=O)OCC[N+](C)(C)CCOC(=O)CCCCCCCCCCC.COS(=O)(=O)[O-] | >5.60

---

system: Staphylococcus aureus ATCC 6538; experiment: DGHM suspension test, microbicidal activity; type: cell-based; conditions: CU 200 mg/l; contact time 30 mins.
Each entry below carries its reported logarithmic reduction factor.
test-readout: logarithmic reduction factor

smiles | test-readout | result
CCCCCCCC(=O)OCC[N+](C)(CCO)CCOC(=O)CCCCCCC.COS(=O)(=O)[O-] | logarithmic reduction factor | >5.42
CCCCCCCCCC(=O)OCC[N+](C)(CCO)CCOC(=O)CCCCCCCCC.COS(=O)(=O)[O-] | logarithmic reduction factor | >5.75
CCCCCCCCC(=O)OCC[N+](C)(C)CCOC(=O)CCCCCCCC.COS(=O)(=O)[O-] | logarithmic reduction factor | >5.19
CCCCCCCC(=O)OCC[N+](C)(CCOC(=O)CCCCCCC)CCOC(=O)CCCCCCC.COS(=O)(=O)[O-] | logarithmic reduction factor | >5.50
CCCCCCCCCCCC(=O)OCC[N+](C)(CCO)CCOC(=O)CCCCCCCCCCC.COS(=O)(=O)[O-] | logarithmic reduction factor | >5.75
CCCCCCCCCC(=O)OCC[N+](C)(C)CCOC(=O)CCCCCCCCC.COS(=O)(=O)[O-] | logarithmic reduction factor | >5.72
CCCCCCCC(=O)OCC[N+](C)(C)CCOC(=O)CCCCCCC.COS(=O)(=O)[O-] | logarithmic reduction factor | <1.23
CCCCCCCCCCCC(=O)OCC[N+](C)(C)CCOC(=O)CCCCCCCCCCC.COS(=O)(=O)[O-] | logarithmic reduction factor | >5.51
CCCCCCCCCC(=O)OCC[N+](C)(CCOC(=O)CCCCCCCCC)CCOC(=O)CCCCCCCCC.COS(=O)(=O)[O-] | logarithmic reduction factor | 1.83
